Task for the reader: assign each of the following variants its reported normalized RNA/DNA level with ligand (log10).
B1: library; a variant is named by its letters at N, in order (parent)
chain: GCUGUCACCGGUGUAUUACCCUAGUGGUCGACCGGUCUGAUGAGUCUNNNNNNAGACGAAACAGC

variants of: B1; assay: normalized RNA/DNA level with ligand (relative to sTRSVctl = 100) (log10 (% of sTRSVctl)); ligand: hypoxanthine (xanthine aptamer); higher = less ribozyme self-cleavage, higher mRNA level; conditions: ligand concentration (+) RNA-Seq: 5 mM, HEK293T, reporter: mCherry (pCS4076), ligand present: yes
Numbers only.

- GCUGUCACCGGUGUAUUACCCUAGUGGUCGACCGGUCUGAUGAGUCUCGAAACAGACGAAACAGC [CGAAAC]: 1.92
- GCUGUCACCGGUGUAUUACCCUAGUGGUCGACCGGUCUGAUGAGUCUUCAUGAAGACGAAACAGC [UCAUGA]: 1.88
- GCUGUCACCGGUGUAUUACCCUAGUGGUCGACCGGUCUGAUGAGUCUCGUGCGAGACGAAACAGC [CGUGCG]: 1.95
- GCUGUCACCGGUGUAUUACCCUAGUGGUCGACCGGUCUGAUGAGUCUGAGAACAGACGAAACAGC [GAGAAC]: 1.91
- GCUGUCACCGGUGUAUUACCCUAGUGGUCGACCGGUCUGAUGAGUCUAAGUGUAGACGAAACAGC [AAGUGU]: 1.89
- GCUGUCACCGGUGUAUUACCCUAGUGGUCGACCGGUCUGAUGAGUCUCAGCCAAGACGAAACAGC [CAGCCA]: 1.97

Go through the list and state normalized RNA/DNA level with ligand (log10) for each entry.
1. GCUGUCACCGGUGUAUUACCCUAGUGGUCGACCGGUCUGAUGAGUCUCUAUUGAGACGAAACAGC [CUAUUG]
2. GCUGUCACCGGUGUAUUACCCUAGUGGUCGACCGGUCUGAUGAGUCUUUUUUAAGACGAAACAGC [UUUUUA]

[out]
1.95
1.99

# per-item lookup of normalized RNA/DNA level with ligand (log10); items listed below
1. GCUGUCACCGGUGUAUUACCCUAGUGGUCGACCGGUCUGAUGAGUCUGGUAAGAGACGAAACAGC [GGUAAG]
2. GCUGUCACCGGUGUAUUACCCUAGUGGUCGACCGGUCUGAUGAGUCUUCCGCAAGACGAAACAGC [UCCGCA]
3. GCUGUCACCGGUGUAUUACCCUAGUGGUCGACCGGUCUGAUGAGUCUUAUUCUAGACGAAACAGC [UAUUCU]
4. GCUGUCACCGGUGUAUUACCCUAGUGGUCGACCGGUCUGAUGAGUCUACGAUAAGACGAAACAGC [ACGAUA]
5. GCUGUCACCGGUGUAUUACCCUAGUGGUCGACCGGUCUGAUGAGUCUGCGAUCAGACGAAACAGC [GCGAUC]
6. GCUGUCACCGGUGUAUUACCCUAGUGGUCGACCGGUCUGAUGAGUCUUGAGUAAGACGAAACAGC [UGAGUA]
7. GCUGUCACCGGUGUAUUACCCUAGUGGUCGACCGGUCUGAUGAGUCUCGUGGAAGACGAAACAGC [CGUGGA]
8. GCUGUCACCGGUGUAUUACCCUAGUGGUCGACCGGUCUGAUGAGUCUGUUACUAGACGAAACAGC [GUUACU]

[out]
[1.74, 1.93, 1.96, 1.87, 1.87, 1.9, 1.96, 1.95]

List the reported normalized RNA/DNA level with ligand (log10) of each variant below.
1. GCUGUCACCGGUGUAUUACCCUAGUGGUCGACCGGUCUGAUGAGUCUACGUGCAGACGAAACAGC [ACGUGC]
2. GCUGUCACCGGUGUAUUACCCUAGUGGUCGACCGGUCUGAUGAGUCUGGAGAAAGACGAAACAGC [GGAGAA]

[out]
1. 1.81
2. 1.92

Give one value of normalized RNA/DNA level with ligand (log10) per listed variant.
1. GCUGUCACCGGUGUAUUACCCUAGUGGUCGACCGGUCUGAUGAGUCUCAAGAGAGACGAAACAGC [CAAGAG]
2. GCUGUCACCGGUGUAUUACCCUAGUGGUCGACCGGUCUGAUGAGUCUAGUGCCAGACGAAACAGC [AGUGCC]

[out]
1: 1.86; 2: 1.94
